molecular target: T1, MD50 protein; experiment: ELISA, antigen coated, TG1 supernatant; note: test concentration or dose not given here
T1 construct: range 487-580; also called proximal membrane fragment of mesothelin
T1 sequence (Q13421 495-588): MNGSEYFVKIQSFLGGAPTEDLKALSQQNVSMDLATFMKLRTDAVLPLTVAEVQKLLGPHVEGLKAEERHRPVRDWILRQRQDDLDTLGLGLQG
observable: ELISA (OD450)
Give just the number in OD450; leave the unit off.

• M129 (VHH, Nanoantibody in TG1 supernatant in the screening ELISA; also called clone M129) VHH: QVQLVESGGGSAQAGGSLILSCVASANLFTIDALGWYRQAPGPKRELVAAISSGGNKYYADAVKGRFTISRDTLTKTMWLQMNNLKPEDTAMYYCAAEDYGLGQRSWGMGTQVTVSS = 1.66
• M004 (VHH, Nanoantibody in TG1 supernatant in the screening ELISA; also called clone M004) VHH: EVQLVESGGGLVQAGGSLRLSCAASESISSIAYMGWYRRISEKERNLVATISSTGSTYYADSVKGRFTISRDNAKNTMYLQMNRLKPEDTAIYYCAASNKAYNDYDPDWGQGTQVTVSS = 1.81
• M012 (VHH, Nanoantibody in TG1 supernatant in the screening ELISA; also called clone M012) VHH: QVQLVESGGDLVQTGGSLRLSCVVSGSTFAINAMGWYRQAPGKERELVAAISSGGDSTHYADDVKGRFTISRDNAENTMYLQMKSLKPEDTAVYVCNARGCRDFHNPQALCVLRDYWGQGTQVTVSS = 2.05
• M197 (VHH, Nanoantibody in TG1 supernatant in the screening ELISA; also called clone M197) VHH: EVQLVESGGGLVQAGGSLRLSCAASGSHFGLNVVGWYRQAPGKQRELVASIGNSGRTTDYADSVKGRFTISKDNAQNTIYLQMNNLKPEDTAMYRCHLRVSVERGYWGQGTQVTVSS = 1.69

Please look at the following binder next.
Exercise: Complete the entry with ELISA (OD450) for M191 (VHH, Nanoantibody in TG1 supernatant in the screening ELISA; also called clone M191) VHH: QVQLVESGGGLVQAGGSLRLSCAASASMGSISNMGWYRQAPGKERGNERNLVATIGSDGRTYYADSVKGRFTISRDNVKNTMILQMNFLKPEDTAMYYCAVEDRQRPGTENYYWGQGTQVTVSS
Key: 1.71
